response listing for selected variants.
B1: GFP-RhoBTB1 [human] / myc-ROCK1^1–727 [human] (parent complex)
chain 1: MDADMDYERPNVETIKCVVVGDNAVGKTRLICARACNTTLTQYQLLATHVPTVWAIDQYRVCQEVLERSRDVVDEVSVSLRLWDTFGDHHKDRRFAYGRSDVVVLCFSIANPNSLNHVKSMWYPEIKHFCPRTPVILVGCQLDLRYADLEAVNRARRPLARPIKRGDILPPEKGREVAKELGLPYYETSVFDQFGIKDVFDNAIRAALISRRHLQFWKSHLKKVQKPLLQAPFLPPKAPPPVIKIPECPSMGTNEAACLLDNPLCADVLFILQDQEHIFAHRIYLATSSSKFYDLFLMECEESPNGSEGACEKEKQSRDFQGRILSVDPEEEREEGPPRIPQADQWKSSNKSLVEALGLEAEGAVPETQTLTGWSKGFIGMHREMQVNPISKRMGPMTVVRMDASVQPGPFRTLLQFLYTGQLDEKEKDLVGLAQIAEVLEMFDLRMMVENIMNKEAFMNQEITKAFHVRKANRIKECLSKGTFSDVTFKLDDGAISAHKPLLICSCEWMAAMFGGSFVESANSEVYLPNINKISMQAVLDYLYTKQLSPNLDLDPLELIALANRFCLPHLVALAEQHAVQELTKAATSGVGIDGEVLSYLELAQFHNAHQLAAWCLHHICTNYNSVCSKFRKEIKSKSADNQEYFERHRWPPVWYLKEEDHYQRVKREREKEDIALNKHRSRRKWCFWNSSPAVA
chain 2: MSTGDSFETRFEKMDNLLRDPKSEVNSDCLLDGLDALVYDLDFPALRKNKNIDNFLSRYKDTINKIRDLRMKAEDYEVVKVIGRGAFGEVQLVRHKSTRKVYAMKLLSKFEMIKRSDSAFFWEERDIMAFANSPWVVQLFYAFQDDRYLYMVMEYMPGGDLVNLMSNYDVPEKWARFYTAEVVLALDAIHSMGFIHRDVKPDNMLLDKSGHLKLADFGTCMKMNKEGMVRCDTAVGTPDYISPEVLKSQGGDGYYGRECDWWSVGVFLYEMLVGDTPFYADSLVGTYSKIMNHKNSLTFPDDNDISKEAKNLICAFLTDREVRLGRNGVEEIKRHLFFKNDQWAWETLRDTVAPVVPDLSSDIDTSNFDDLEEDKGEEETFPIPKAFVGNQLPFVGFTYYSNRRYLSSANPNDNRTSSNADKSLQESLQKTIYKLEEQLHNEMQLKDEMEQKCRTSNIKLDKIMKELDEEGNQRRNLESTVSQIEKEKMLLQHRINEYQRKAEQENEKRRNVENEVSTLKDQLEDLKKVSQNSQLANEKLSQLQKQLEEANDLLRTESDTAVRLRKSHTEMSKSISQLESLNRELQERNRILENSKSQTDKDYYQLQAILEAERRDRGHDSEMIGDLQARITSLQEEVKHLKHNLEKVEGERKEAQDMLNHSEKEKNNLEIDLNYKLKSLQQRLEQEVNEHKVTKARLTDKHQSIEEAKSVAMCEMEKKLKEEREAR

variants of: B1; assay: co-immunoprecipitation (GFP-trap) with band density quantification; COS7 cells, 24 h after transfection; three independent experiments; parent: 1.1; read off a plot

Solved entries (count: 3):
chain 1 E64A; ~1.5 relative value myc IP/GFP IP
chain 1 E64A, chain 1 K197A; ~2 relative value myc IP/GFP IP
chain 1 R60A, chain 1 C62A, chain 1 E64A; ~1.1 relative value myc IP/GFP IP

Now take the following variant into account.
Asked: Could you share which response value was measured for chain 1 E64A, chain 1 K197A, chain 1 D198A ?
Given back: ~1.2 relative value myc IP/GFP IP
